biological target: LXRβ (Homo sapiens); experiment: SMRT2 corepressor binding to LXRβ, CRT; format: biochemical; set-up: The CRT selectivity assay incorporates GST-tagged LXR-LBD; purchased Thermo Fisher Scientific PV4660; details: ligand 1 µM, interpolated from concentration-response, normalized; heat map Figure 9A; read-out: SMRT2β, relative % activity at 1 μM
Sequence (P55055 222-460 limits assumed): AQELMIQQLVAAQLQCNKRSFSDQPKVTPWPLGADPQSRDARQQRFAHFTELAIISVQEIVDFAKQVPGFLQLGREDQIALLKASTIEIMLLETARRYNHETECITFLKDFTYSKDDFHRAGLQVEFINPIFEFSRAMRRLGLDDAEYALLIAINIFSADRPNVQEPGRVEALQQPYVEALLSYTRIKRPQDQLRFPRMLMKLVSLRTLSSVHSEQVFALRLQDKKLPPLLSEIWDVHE
ENDPOINT: activity at 1 µM (%)
Just the number in %, nothing appended.

(Q) Give activity at 1 µM for C[C@H](CCC(=O)N(C)C)[C@H]1CC[C@H]2[C@@H]3CC=C4C[C@@H](O)CC[C@]4(C)[C@H]3CC[C@]12C [DMHCA, N,N-dimethyl-3β-hydroxy-cholenamide]
(A) 98.7

(Q) Determine its reported activity at 1 µM: Cc1cc(C)c(S(=O)(=O)N(Cc2ccc(-c3cccc(S(C)(=O)=O)c3)cc2)Cc2ccccc2F)c(C)c1 [BE1218]
(A) 81.6

(Q) Please supply the value of reported activity at 1 µM for the item COc1ccc(NC2=C(c3ccccc3)C(=O)N(Cc3ccccc3)C2=O)cc1 [GSK3987]
(A) 84

Source of measurements: paper PMC13286573
